# Target Desc: αvβ3 integrin (Homo sapiens, UniProt P05106+P06756)
# Sequence (P06756 31-889 limits assumed): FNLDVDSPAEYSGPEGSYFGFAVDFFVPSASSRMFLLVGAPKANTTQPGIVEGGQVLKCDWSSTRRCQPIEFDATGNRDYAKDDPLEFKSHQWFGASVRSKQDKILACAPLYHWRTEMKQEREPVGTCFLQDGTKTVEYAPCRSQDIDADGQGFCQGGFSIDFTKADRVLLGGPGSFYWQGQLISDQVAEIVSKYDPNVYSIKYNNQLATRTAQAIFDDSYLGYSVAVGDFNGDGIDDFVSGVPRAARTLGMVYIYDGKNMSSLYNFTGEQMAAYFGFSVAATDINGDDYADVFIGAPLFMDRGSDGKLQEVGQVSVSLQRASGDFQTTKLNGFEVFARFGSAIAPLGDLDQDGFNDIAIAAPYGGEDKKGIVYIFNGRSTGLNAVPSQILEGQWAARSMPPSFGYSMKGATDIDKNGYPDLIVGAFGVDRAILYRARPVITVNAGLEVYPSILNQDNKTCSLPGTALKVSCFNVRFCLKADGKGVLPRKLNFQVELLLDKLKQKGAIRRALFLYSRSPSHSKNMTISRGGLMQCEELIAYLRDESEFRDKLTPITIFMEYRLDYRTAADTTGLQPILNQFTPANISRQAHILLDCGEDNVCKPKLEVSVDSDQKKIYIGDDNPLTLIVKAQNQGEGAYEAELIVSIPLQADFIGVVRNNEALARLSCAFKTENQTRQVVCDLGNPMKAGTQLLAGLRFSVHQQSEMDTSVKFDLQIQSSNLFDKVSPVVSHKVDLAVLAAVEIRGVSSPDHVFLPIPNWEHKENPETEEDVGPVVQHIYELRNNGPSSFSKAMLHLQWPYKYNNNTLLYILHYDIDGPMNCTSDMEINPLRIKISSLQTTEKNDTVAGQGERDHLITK
# Sequence (P06756 891-1048 partner limits assumed): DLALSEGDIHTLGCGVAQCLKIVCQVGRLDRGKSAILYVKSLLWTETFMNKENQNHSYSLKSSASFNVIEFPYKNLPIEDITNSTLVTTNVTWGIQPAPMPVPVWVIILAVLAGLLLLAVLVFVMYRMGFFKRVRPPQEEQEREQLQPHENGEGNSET
# Sequence (P05106 27-788): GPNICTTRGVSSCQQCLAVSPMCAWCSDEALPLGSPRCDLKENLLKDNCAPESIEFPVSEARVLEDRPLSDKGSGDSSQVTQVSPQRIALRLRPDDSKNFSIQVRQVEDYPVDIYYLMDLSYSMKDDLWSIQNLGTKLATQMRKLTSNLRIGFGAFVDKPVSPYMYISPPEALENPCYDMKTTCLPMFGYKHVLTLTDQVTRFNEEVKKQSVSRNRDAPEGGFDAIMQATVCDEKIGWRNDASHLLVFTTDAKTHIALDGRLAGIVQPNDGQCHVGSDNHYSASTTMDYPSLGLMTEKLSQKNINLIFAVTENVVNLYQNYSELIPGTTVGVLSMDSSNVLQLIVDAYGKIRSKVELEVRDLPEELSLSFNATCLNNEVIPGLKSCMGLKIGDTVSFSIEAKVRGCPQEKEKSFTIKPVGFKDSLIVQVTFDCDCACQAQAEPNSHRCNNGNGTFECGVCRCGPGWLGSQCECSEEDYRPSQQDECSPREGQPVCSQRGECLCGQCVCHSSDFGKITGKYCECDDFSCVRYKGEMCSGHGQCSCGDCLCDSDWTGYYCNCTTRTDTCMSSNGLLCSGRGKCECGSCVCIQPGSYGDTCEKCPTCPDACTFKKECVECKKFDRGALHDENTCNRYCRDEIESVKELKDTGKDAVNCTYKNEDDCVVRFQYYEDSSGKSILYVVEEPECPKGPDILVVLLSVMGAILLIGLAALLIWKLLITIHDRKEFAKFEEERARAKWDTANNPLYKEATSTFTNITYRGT
# Experiment: SPR of crosslinked and native pAzF diblock constructs
# Assay type: binding
# Condition Notes: crosslinked UAA5-40-based constructs
Assay Metric: pKd
One number for each entry, as −log10 of the molar value.

Fill blank: measured pKd of the substance GRGDSPAS: UAA5-40-K8D4-ligand construct with integrin-targeting GRGDSPAS ligand (SEQ ID NO: 76) is ____. 7.70
